Here's what we have: IC50 numbers for Ephrin type-A receptor 4 (Homo sapiens).
Outcome Measure: IC50 (µM)

{"Smi": "Cc1ccccc1-c1nc2[nH]nc(N)c2c2c1CCCC2", "Unit Tag": "µM", "Value Observed": 2}

P = Nc1n[nH]c2nc(-c3ccccc3Cl)c3c(c12)CCCC3
Q = Cc1ccc(F)cc1-c1nc2[nH]nc(N)c2c2c1CCCC2
Identify the entry with the larger IC50. Options: P and Q Your answer should be the label attached to the chosen record.
P

All values here come from ChEMBL document CHEMBL1926576.
